test system: ebolavirus (EBOV) strain Zaire; assay: organism not typed; assay type: cell-based, Ebola virus; settings: read-out: EC50 (nM) Antigen expression (high content imaging) Ebola Macrophage
Readout Name: EC50 (nM)
Just the number in nM, nothing appended.

CCC(CC)COC(=O)[C@H](C)NP(=O)(OC[C@H]1O[C@@](C#N)(c2ccc3c(N)ncnn23)[C@H](O)[C@@H]1O)Oc1ccccc1 (some centres unmarked) [Compound 9] = 501

Next compound, please.
In: Reported EC50, compound COC(=O)[C@H](C)N[P@](=O)(OC[C@H]1O[C@@](C#N)(c2ccc3c(N)ncnn23)[C@H](O)[C@@H]1O)Oc1ccccc1 [Compound 26] : ____
Out: 1290

---

system: Ebola virus (EBOV); experiment: microbe, parasite or virus in culture; type: cell-based; details: Zaire ebolavirus, Huh-7, read-out: EC50 (nM) RNA Ebola Huh-7
Readout Name: EC50 (nM)
Report only the number, with the unit nM understood.

In: Need EC50, item CCC(CC)COC(=O)[C@H](C)NP(=O)(OC[C@H]1O[C@@](C#N)(c2ccc3c(N)ncnn23)[C@H](O)[C@@H]1O)Oc1ccccc1 (stereo partly shown)
Out: 1

---

Form field: EC50 (one value per entry).
system: NiV-Luc (Nipah virus expressing the luciferase reporter gene); assay: microbe, parasite or virus in culture; type: cell-based; conditions: Henipavirus nipahense, read-out: EC50 (nM) Reporter Virus NiV Luc HMVEC-TERT
Write the number in nM without appending the unit.

N#C[C@@]1(c2ccc3c(N)ncnn23)O[C@H](CO)[C@@H](O)[C@H]1O [Compound 1] = 3500

In: Reported EC50 for NiV-Luc (Nipah virus expressing the luciferase reporter gene), given CCC(CC)COC(=O)[C@H](C)NP(=O)(OC[C@H]1O[C@@](C#N)(c2ccc3c(N)ncnn23)[C@H](O)[C@@H]1O)Oc1ccccc1 (some centres unmarked) [Compound 9] ?
Out: 30

---

test system: ebolavirus (EBOV) strain Zaire; assay: organism not typed; type: cell-based, Ebola virus; settings: HeLa, read-out: EC50 (nM) Antigen expression (high content imaging) Ebola Hela
Form field: log10 of EC50 (one value per entry).
Form field - Quantity: EC50; Unit: nM; Scale: log10

Examples from the recorded data:
CC(C)OC(=O)[C@H](Cc1ccccc1)NP(=O)(OC[C@H]1O[C@@](C#N)(c2ccc3c(N)ncnn23)[C@H](O)[C@@H]1O)Oc1ccccc1 (stereo partly shown) = 3.83
CCC(CC)COC(=O)[C@H](C)N[P@](=O)(OC[C@H]1O[C@@](C#N)(c2ccc3c(N)ncnn23)[C@H](O)[C@@H]1O)Oc1ccccc1 (single isomer, unassigned) [(S)-Diastereomer of Compound 9 (Compound 32)] = 2.00
CC(C)(C)C(=O)SCCOP(=O)(OCCSC(=O)C(C)(C)C)OC[C@H]1O[C@@](C#N)(c2ccc3c(N)ncnn23)[C@H](O)[C@@H]1O = 2.72
CCOC(=O)[C@H](C)NP(=O)(OC[C@H]1O[C@@](C#N)(c2ccc3c(N)ncnn23)[C@H](O)[C@@H]1O)Oc1ccccc1 (stereo partly shown) = 3.51
C[C@H](NP(=O)(OC[C@H]1O[C@@](C#N)(c2ccc3c(N)ncnn23)[C@H](O)[C@@H]1O)Oc1ccccc1)C(=O)OC1CCCC1 (stereo partly shown) = 2.99
C[C@H](NP(=O)(OC[C@H]1O[C@@](C#N)(c2ccc3c(N)ncnn23)[C@H](O)[C@@H]1O)Oc1ccccc1)C(=O)OC1CCCCC1 (stereo partly shown) = 2.44

Now examine the next entry.
In: Looking for the measured log10 of EC50 of CCC(CC)COC(=O)[C@H](C)N[P@@](=O)(OC[C@H]1O[C@@](C#N)(c2ccc3c(N)ncnn23)[C@H](O)[C@@H]1O)Oc1ccccc1 (single isomer, unassigned) [(R)-Diastereomer of Compound 9] , can you help?
Out: 2.32

---

tested on: ebolavirus (EBOV) strain Zaire; test: organism not typed; format: cell-based, Ebola virus; settings: read-out: EC50 (nM) Antigen expression (high content imaging) Ebola Hela
Readout Name: EC50 (nM)
Report only the number, with the unit nM understood.

In: Request: EC50, test system ebolavirus (EBOV) strain Zaire, entry COC(=O)[C@H](C)N[P@](=O)(OC[C@H]1O[C@@](C#N)(c2ccc3c(N)ncnn23)[C@H](O)[C@@H]1O)Oc1ccccc1 [Compound 26]
Out: 1100

In: Request: EC50, test system ebolavirus (EBOV) strain Zaire, entry C[C@H](NP(=O)(OC[C@H]1O[C@@](C#N)(c2ccc3c(N)ncnn23)[C@H](O)[C@@H]1O)Oc1ccccc1)C(=O)OC1CCCC1 (some centres unmarked) [Compound 28]
Out: 682

In: What is its EC50 for ebolavirus (EBOV) strain Zaire? Entry: CCC(CC)COC(=O)[C@H](C)NP(=O)(OC[C@H]1O[C@@](C#N)(c2ccc3c(N)ncnn23)[C@H](O)[C@@H]1O)Oc1ccccc1 (some centres unmarked) [Compound 9]
Out: 270

In: What value of EC50 on ebolavirus (EBOV) strain Zaire does CC(C)OC(=O)[C@H](C)NP(=O)(OC[C@H]1O[C@@](C#N)(c2ccc3c(N)ncnn23)[C@H](O)[C@@H]1O)Oc1ccccc1 (stereo in doubt) [Compound 23] have?
Out: 1840

---

test system: NiV (Nipah virus); experiment: microbe, parasite or virus in culture; assay type: cell-based; conditions: Henipavirus nipahense, HeLa, read-out: EC50 (nM) CPE NiV Hela
Readout Name: EC50 (nM)
Quick note: give the figure in nM, leave out the unit.

In: What value of measured EC50 is listed for N#C[C@@]1(c2ccc3c(N)ncnn23)O[C@H](CO)[C@@H](O)[C@H]1O [Compound 1] ?
Out: 1480

---

system: MARV-GFP (Marburg virus expressing the GFP reporter gene); test: organism not typed; format: cell-based; conditions: Huh-7, read-out: EC50 (nM) Reporter Virus MARV-GFP Huh-7
Readout Name: EC50
Form entry: enter the amount, then its unit.

In: What does the record list as EC50 for N#C[C@@]1(c2ccc3c(N)ncnn23)O[C@H](CO)[C@@H](O)[C@H]1O [Compound 1] ?
Out: 1730 nM

---

test system: ebolavirus (EBOV) strain Zaire; test: organism not typed; format: cell-based, Ebola virus; settings: HeLa, read-out: EC50 (nM) Antigen expression (high content imaging) Ebola Hela
In this section, each of the compounds is paired with its reported EC50.
The figure you give is taken to be in nM; do not add the unit.

The cases that follow already have their EC50 on record.
COC(=O)[C@H](C)N[P@](=O)(OC[C@H]1O[C@@](C#N)(c2ccc3c(N)ncnn23)[C@H](O)[C@@H]1O)Oc1ccccc1 = 970
CCOC(=O)[C@@H](NP(=O)(OC[C@H]1O[C@@](C#N)(c2ccc3c(N)ncnn23)[C@H](O)[C@@H]1O)Oc1ccccc1)C(C)C (stereo partly drawn) = 11600

In: Lab request: please report EC50 under test system ebolavirus (EBOV) strain Zaire for CCC(CC)COC(=O)[C@H](C)NP(=O)(OC[C@H]1O[C@@](C#N)(c2ccc3c(N)ncnn23)[C@H](O)[C@@H]1O)Oc1ccccc1 (stereo partly drawn)
Out: 290

---

// EC50 lookup, one value per entry
test system: ebolavirus (EBOV) strain Zaire; test: organism not typed; type: cell-based, Ebola virus; settings: HeLa, read-out: EC50 (nM) Antigen expression (high content imaging) Ebola Hela

The cases that follow already have their EC50 on record.
CC(C)OC(=O)C(C)(C)NP(=O)(OC[C@H]1O[C@@](C#N)(c2ccc3c(N)ncnn23)[C@H](O)[C@@H]1O)Oc1ccccc1 (stereo partly drawn) [Compound 31] = > 20000 nM
CCOC(=O)C(C)(C)NP(=O)(OC[C@H]1O[C@@](C#N)(c2ccc3c(N)ncnn23)[C@H](O)[C@@H]1O)Oc1ccccc1 (stereo partly drawn) [Compound 30] = > 20000 nM

Attention now shifts to the item below.
In: // lookup EC50 for N#C[C@@]1(c2ccc3c(N)ncnn23)O[C@H](CO)[C@@H](O)[C@H]1O [Compound 1]
Out: > 20000 nM
